Please respond with reported pIC50 for every item in the list.
Target: 5-HT1A receptors (Rattus norvegicus, UniProt P19327)
Construct: synaptosomal membranes isolated from cerebral cortex; from tissue; host or cells: cerebral cortex of male Sprague-Dawley rats, crude synaptosomal membranes
Test: Inhibition of 3H-8-OH-DPAT binding at 5-HT1A in vitro (rat cerebral cortex synaptosomal membranes)
Parameters: species or system Male Sprague-Dawley rats (cerebral cortex)
Where a name gives a salt, the structure may show the parent alone.
Formally, pIC50 is defined as -log10 of the concentration c, with c in mol/L.

Incoming: For the compound shown here, CCCN(CCC)C1CCc2cccc(SCC)c2C1 (stereo not shown) , give the reported pIC50.
Outgoing: 7.51

Incoming: Quick one: pIC50 for CCCN(CCC)C1CCc2cccc([S+](C)[O-])c2C1 (stereo not shown) ?
Outgoing: 7.15

Incoming: What value of pIC50 has been recorded for this entry: CSc1cccc2c1CC(N(C)C)CC2 (stereo not shown)
Outgoing: 7.68

Incoming: Entry CCCN(CCC)C1CCc2cccc(Sc3ccccc3)c2C1 (stereo not shown) has what pIC50?
Outgoing: 7.65

Incoming: Which pIC50 reading was recorded for the compound CCCN(CCC)C1CCc2cccc(Sc3ccc(C)cc3)c2C1 (stereo not shown) ?
Outgoing: 7.23

Incoming: Request the reported pIC50 associated with CCCN(CCC)C1CCc2cccc(Sc3ccccn3)c2C1 (stereo not shown)
Outgoing: 8.05

Incoming: Fill in: pIC50 of CCCN(CCC)C1CCc2cccc(SC)c2C1 (stereo not shown) is ___
Outgoing: 9.52

Incoming: Consider the compound shown here: CCCN(CCC)C1CCc2cccc(S(C)(=O)=O)c2C1 (stereo not shown) What is its recorded pIC50?
Outgoing: 8.00

Incoming: Which pIC50 value belongs to CCCN(CCC)C1CCc2cccc(SCc3ccccc3)c2C1 (stereo not shown) ?
Outgoing: 8.55

Incoming: What does the record list as pIC50 for CCCN(CCC)C1COc2cccc(SC)c2C1 (stereo not shown) [Example 11, hydrochloride] ?
Outgoing: 8.60

---

Target: 5-HT1A receptors (Rattus norvegicus)
Construct: synaptosomal membranes isolated from cerebral cortex; from tissue; host or cells: cerebral cortex of male Sprague-Dawley rats, crude synaptosomal membranes
Sequence (P19327 1-422): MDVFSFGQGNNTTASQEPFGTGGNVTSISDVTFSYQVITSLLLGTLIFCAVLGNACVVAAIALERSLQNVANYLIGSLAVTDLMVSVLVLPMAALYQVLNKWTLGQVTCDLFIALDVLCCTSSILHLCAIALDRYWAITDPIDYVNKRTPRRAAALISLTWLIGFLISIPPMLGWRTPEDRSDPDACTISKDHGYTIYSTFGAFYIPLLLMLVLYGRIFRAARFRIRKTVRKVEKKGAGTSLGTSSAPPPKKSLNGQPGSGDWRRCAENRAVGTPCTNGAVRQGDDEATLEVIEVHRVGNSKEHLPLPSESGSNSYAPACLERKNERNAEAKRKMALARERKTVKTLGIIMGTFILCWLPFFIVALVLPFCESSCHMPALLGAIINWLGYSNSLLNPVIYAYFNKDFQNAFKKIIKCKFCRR
Experiment: Inhibition of 3H-8-OH-DPAT binding at 5-HT1A in vitro (rat cerebral cortex synaptosomal membranes)
Set-up: species or system Male Sprague-Dawley rats (cerebral cortex)
Conditions: 0.4 nM 3H-8-OH-DPAT; rat cerebral cortex synaptosomal membranes; 37° C., 10 min, pH 7.4; read-out: IC50, 5HT1a (concentration required to inhibit the binding of 3H-8-OH-DPAT by 50%)
metric: IC50 (nM)
Answer format: numeric, nM implied, no suffix.

Incoming: Quick one: IC50 of CCCN(CCC)[C@@H]1CCc2cccc(SC)c2[C@@H]1C (relative stereo) [Example 8] ?
Outgoing: 297
